# targetDesc: κ opioid receptor (Cavia porcellus)
# Construct: tissue Pel-Freeze Biological Inc. (Rogers, Ark.); host or cells: guinea pig cerebellum
# Sequence (P41144 whole entry): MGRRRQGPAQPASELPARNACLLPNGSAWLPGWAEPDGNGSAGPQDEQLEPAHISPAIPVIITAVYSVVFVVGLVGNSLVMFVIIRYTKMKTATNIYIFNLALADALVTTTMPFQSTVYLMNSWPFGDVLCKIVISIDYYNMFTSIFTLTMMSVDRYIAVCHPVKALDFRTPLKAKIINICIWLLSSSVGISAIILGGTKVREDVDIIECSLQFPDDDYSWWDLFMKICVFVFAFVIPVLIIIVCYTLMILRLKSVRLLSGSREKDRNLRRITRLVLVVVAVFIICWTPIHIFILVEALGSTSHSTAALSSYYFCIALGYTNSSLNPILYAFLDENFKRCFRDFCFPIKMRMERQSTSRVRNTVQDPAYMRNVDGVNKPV
# experimentDescription: radioligand binding, κ opioid receptor, guinea pig cerebellum
# conditionLabel: tritium-labeled U69593
Consider the cut-off 3 nM. If the recorded Ki is strictly smaller, the label is Met; if not, the label is Not met.

{"columns": ["compound", "category"],
 "data": [
  ["C=CCN1C[C@H](C)N([C@@H](c2cccc(O)c2)c2cccc(C(=O)N3CCCN(CCCCC(=O)O)CC3)c2)C[C@H]1C", "Not met"],
  ["C=CCN1C[C@H](C)N(C(c2ccc(C(=O)N3CCCN(CCCC(=O)O)CC3)cc2)c2cccc(O)c2)C[C@H]1C (some centres unmarked)", "Not met"],
  ["C=CCN1C[C@H](C)N([C@@H](c2cccc(O)c2)c2cccc(C(=O)N3CCCN(CCCC(=O)OCC)CC3)c2)C[C@H]1C", "Met"],
  ["C=CCN1C[C@H](C)N(C(c2cccc(O)c2)c2cccc(C(=O)N3CCCN(CC(=O)O)CC3)c2)C[C@H]1C (some centres unmarked)", "Not met"],
  ["C=CCN1C[C@H](C)N([C@@H](c2cccc(O)c2)c2cccc(C(=O)N3CCCN(CCC(=O)OCC)CC3)c2)C[C@H]1C", "Met"],
  ["C=CCN1C[C@H](C)N(C(c2cccc(O)c2)c2cccc(C(=O)N3CCCNCC3)c2)C[C@H]1C (some centres unmarked)", "Met"],
  ["C=CCN1C[C@H](C)N(C(c2cccc(O)c2)c2cccc(C(=O)N3CCCN(C)CC3)c2)C[C@H]1C (some centres unmarked)", "Met"],
  ["C=CCN1C[C@H](C)N(C(c2ccc(C(=O)N3CCCN(CCCC(=O)OCC)CC3)cc2)c2cccc(O)c2)C[C@H]1C (some centres unmarked)", "Met"],
  ["C=CCN1C[C@H](C)N([C@@H](c2cccc(O)c2)c2cccc(C(=O)N3CCCN(CCCC(=O)O)CC3)c2)C[C@H]1C", "Not met"],
  ["C=CCN1C[C@H](C)N(C(c2cccc(O)c2)c2cccc(C(=O)N3CCCN(CC(=O)OCC)CC3)c2)C[C@H]1C (some centres unmarked)", "Not met"],
  ["C=CCN1C[C@H](C)N([C@@H](c2cccc(O)c2)c2cccc(C(=O)N3CCCN(CCCCC(=O)OCC)CC3)c2)C[C@H]1C", "Met"],
  ["C=CCN1C[C@H](C)N([C@@H](c2cccc(O)c2)c2cccc(C(=O)N3CCCN(CCC(=O)O)CC3)c2)C[C@H]1C", "Not met"],
  ["C[C@@H]1CN([C@@H](c2cccc(O)c2)c2cccc(C(=O)N3CCCN(CCC(=O)O)CC3)c2)[C@@H](C)CN1Cc1ccccc1", "Not met"]
]}
